Measured values drawn from the supplement of paper PMC10567573 for this set.

B1: COX4I1 (parent)
chain: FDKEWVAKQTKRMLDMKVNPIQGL

Variants of: B1
Experiment: protein stability index of a GFP-peptide fusion (GPS, HEK-293T) (PSI 1-6); higher = more stable;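 also: lentivirally expressed fusions sorted by FACS into six bins by GFP to DsRed ratio, PSI derived from sequencing read proportions per bin multiplied by bin number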
Settings: c terminus: a fixed tail appended
Rule: criterion met for protein stability index not less than 2, criterion not met for anything less.

Some entries whose results are on file:
E4N
criterion not met
P20R
criterion not met
G23N
criterion not met
P20H
criterion not met
P20W
criterion met
I21M
criterion met
D15A
criterion not met
A7D
criterion met
L14Y
criterion met
A7W
criterion not met

protein stability index >= 2 for "N19A" ? criterion not met

Quick check, protein stability index >= 2? "T10F" criterion not met

Given the entry "V18N" , answer whether its protein stability index meets or surpasses 2. criterion not met

Hello, I need to know if "T10G" has measured protein stability index not below 2. Thanks! criterion met

Could you please find out whether "W5C" has protein stability index that meets 2 or exceeds it? criterion met

Is it the case that "Q22Y" has protein stability index reaching or exceeding 2? criterion met

In plain terms: is recorded protein stability index at least 2 for "K3G" ? criterion not met

Evaluate "A7G" : protein stability index at minimum 2? criterion met

Decide: protein stability index of "V18Q" >= 2? criterion met

Given "Q9C" , state whether its protein stability index is at least 2. criterion met

I'd appreciate it if you could say whether "K17P" has protein stability index at least equal to 2. criterion met

I'd appreciate it if you could say whether "V18P" has protein stability index at least equal to 2. criterion met

Kindly determine if protein stability index recorded for "E4Y" is above or exactly 2. criterion not met

Given "K11V" , state whether its protein stability index is at least 2. criterion met

I'd appreciate it if you could say whether "F1R" has protein stability index at least equal to 2. criterion met

Does "L14F" have a reported protein stability index of at least 2? criterion met

Is it the case that "I21N" has protein stability index reaching or exceeding 2? criterion met

Could you verify whether the entry "P20A" shows protein stability index of no less than 2? criterion not met

Does the reported protein stability index for "V6N" fall at or above the 2 mark? criterion not met

State whether the measured protein stability index reaches 2, counting equality as reaching it, for "P20L" criterion not met
